compounds and their reported GI50
# Tested on: CAKI-1
# MEASUREMENT DESCRIPTION: NCI tumour cell line growth inhibition, 48 h
Active and inactive are the calls of the source. Cut-off read from the data, not from the text of the source: active = GI50 up to about 1.1 µM and inactive = higher.

Some solved entries appear below for comparison.
{"COMPOUND": "NC1=C(N2CCCCC2)C(=O)NC2=N/C(=C\\c3ccccc3)C(=O)N21", "OBSERVABLE": "GI50", "VALUE REPORTED": "> 100 µM (inactive)"}
{"COMPOUND": "COC(=O)c1cccc2c3ccccc3c3ccccc3c12", "OBSERVABLE": "GI50", "VALUE REPORTED": "40.4 µM (inactive)"}
{"COMPOUND": "C/C=C/COC(=O)CO[N+](=O)[O-]", "OBSERVABLE": "GI50", "VALUE REPORTED": "> 100 µM (inactive)"}

(Q) Record request: GI50 value, item COC1(OC)CC2OC1C1N=NN(C(=O)OC(C)(C)C)C21 (stereo not drawn)
(A) > 100 µM (inactive)

(Q) Record request: GI50 value, item `Fc1cc(C2=Nn3c(COc4ccccc4Cl)nnc3S/C2=C\c2ccc(Cl)cc2)c(Cl)cc1Cl`
(A) 8.02 µM (inactive)

(Q) Record request: GI50 value, item COc1ccc(N2C(=O)C3c4[nH]c5ccc(C)cc5c4C4CCC(C(C)(C)C)CC4C3C2=O)cc1 (stereo not drawn)
(A) 10.3 µM (inactive)

(Q) Record request: GI50 value, item `COC(=O)[C@H](NC(=O)OC(C)(C)C)[C@H]1COC(C)(C)O1`
(A) > 100 µM (inactive)

(Q) Record request: GI50 value, item COC12c3ccccc3-c3ccccc3C1[C@H]1C(=O)OC(=O)[C@H]12 (stereo partly drawn)
(A) > 10 µM (inactive)

(Q) Record request: GI50 value, item `Cc1cc(Br)cc(C)c1NC(=O)C(=O)CC(=O)c1sc(-n2nc(-c3ccccc3)cc2-c2ccccc2)nc1C`
(A) > 100 µM (inactive)

(Q) Record request: GI50 value, item `Cc1cc2[nH]c3c(C#N)c(-c4ccccc4)c(/N=N/c4cccc(C(F)(F)F)c4)c(=O)n3c2cc1C`
(A) 32 µM (inactive)

(Q) Record request: GI50 value, item Cc1c2n(c3ccccc13)CC1CON(C)C21 (stereo not drawn)
(A) > 100 µM (inactive)

(Q) Record request: GI50 value, item `CC1(C)CN=C(Nc2ccc(F)c(Cl)c2)S1`
(A) > 100 µM (inactive)

(Q) Record request: GI50 value, item `N=C(N)N/N=C/c1cc(Cl)cc(Cl)c1O`
(A) 38.7 µM (inactive)

(Q) Record request: GI50 value, item COc1ccc2c(c1OC)C(C=C(c1ccccc1)c1ccccc1)CN(C)C2 (stereo not drawn)
(A) 14.2 µM (inactive)

(Q) Record request: GI50 value, item `O=C1CCCC2=C1CC1=C(CCCC1=O)N2c1ccc([N+](=O)[O-])cc1`
(A) > 100 µM (inactive)

(Q) Record request: GI50 value, item `CCOC(=O)/C(C#N)=C(O)/C(=C/c1ccccc1Cl)NC(=O)c1ccccc1`
(A) > 100 µM (inactive)

(Q) Record request: GI50 value, item `COc1cc(/C=C/c2cccnc2)cc(OC)c1OC`
(A) > 100 µM (inactive)

(Q) Record request: GI50 value, item `COC(=O)/C=C\S/C(=C(/c1ccccc1)n1ccc(C(=O)OC)n1)c1ccccc1`
(A) > 100 µM (inactive)

====

# System: M14
# MEASUREMENT DESCRIPTION: NCI tumour cell line growth inhibition, 48 h
The source made the active and inactive calls. Cut-off read from the data, not from the text of the source: active = GI50 up to about 1.1 µM and inactive = higher.
compounds and their reported GI50

{"COMPOUND": "Nc1nc(O)c2nc(N)n(Cc3ccccc3)c2n1", "SUBJECT OF TEST": "M14", "GI50": "> 100 µM (inactive)"}
{"COMPOUND": "O=c1c2cc([N+](=O)[O-])ccc2[nH]n1Cc1ccccn1", "SUBJECT OF TEST": "M14", "GI50": "> 100 µM (inactive)"}
{"COMPOUND": "CC(=O)N1CC(=O)N2C(=O)/C(=C/c3ccc(Cl)cc3)N=C12", "SUBJECT OF TEST": "M14", "GI50": "> 100 µM (inactive)"}
{"COMPOUND": "CC(=O)OCCOCn1c2ccccc2c2c3c(c4c5ccccc5n(COCCOC(C)=O)c4c21)C(=O)N(Cc1ccccc1)C3=O", "SUBJECT OF TEST": "M14", "GI50": "> 100 µM (inactive)"}
{"COMPOUND": "COc1c(-c2nc3ccc(N4CCN(C)CC4)cc3[nH]2)cc(OC)c2[nH]c(COC(C)=O)nc12", "SUBJECT OF TEST": "M14", "GI50": "19.6 µM (inactive)"}

(Q) Kindly state the measured GI50 obtained for COc1ccccc1NC(=O)C(=O)C(C#N)CC(C)(C)C=O (stereo not drawn) with M14.
(A) > 100 µM (inactive)

(Q) Kindly state the measured GI50 obtained for `CCCCCCCCNC(=S)N/C=C1\C(=O)Oc2ccccc2C1=O` with M14.
(A) 19.3 µM (inactive)

(Q) Kindly state the measured GI50 obtained for CC(=O)OC1CC2CCC1(C)C2(C)C (stereo not drawn) with M14.
(A) > 100 µM (inactive)

====

# System: UACC-257
# MEASUREMENT DESCRIPTION: NCI tumour cell line growth inhibition, 48 h
Active and inactive are the calls of the source. Rule as the data show it: active = GI50 up to about 1.1 µM and inactive = higher.
molecules and their reported GI50

{"MOLECULE": "C=CCC1=CC2(OC)C(=O)C(OC)(OC)C1C1C(OC)(OC)C(=O)C(OC)=CC12CC=C (stereo not drawn)", "SUBJECT OF TEST": "UACC-257", "VALUE REPORTED": "> 100 µM (inactive)"}

(Q) Kindly state the measured GI50 obtained for `O=[N+]([O-])c1ccc(S(=O)(=O)N=Ic2ccccc2)cc1` with UACC-257.
(A) > 100 µM (inactive)

(Q) Kindly state the measured GI50 obtained for `O=[N+]([O-])c1nccn1CCCNc1c2ccccc2[n+]([O-])c2ccccc12` with UACC-257.
(A) > 100 µM (inactive)

(Q) Kindly state the measured GI50 obtained for c1ccc(SCCP(CCP(c2ccccc2)c2ccccc2)c2ccccc2)cc1 (stereo not drawn) with UACC-257.
(A) 11.7 µM (inactive)

(Q) Kindly state the measured GI50 obtained for CC(C)C(Br)CC/C(CBr)=C(\Cl)CCl (stereo not drawn) with UACC-257.
(A) 3.03 µM (inactive)

(Q) Kindly state the measured GI50 obtained for `O=S1(=O)C[C@H](NCc2ccccc2)[C@H](NCc2ccccc2)C1` with UACC-257.
(A) > 100 µM (inactive)

====

# Test system: NCI-H23
# MEASUREMENT DESCRIPTION: NCI tumour cell line growth inhibition, 48 h
Calls of active or inactive are those of the source. Rule as the data show it: active = GI50 up to about 1.1 µM and inactive = higher.
molecules and their reported GI50

(Q) Record request: GI50 value, item COCC1OCCN1C (stereo not drawn)
(A) > 100 µM (inactive)

(Q) Record request: GI50 value, item COC1C=CC(C(=O)[N+]2=Cc3[nH]c4ccccc4c3CC2)O1 (stereo not drawn)
(A) > 100 µM (inactive)

(Q) Record request: GI50 value, item `CC(=O)/C(=C/n1ccc(=O)[nH]c1=S)C(=O)Nc1ccccc1C`
(A) > 100 µM (inactive)

(Q) Record request: GI50 value, item `CCOC(=N)CC(=O)Nc1ccccc1`
(A) > 46.5 µM (inactive)

(Q) Record request: GI50 value, item `COc1ccc(/C=N\NC(=O)Nc2cccc3ccccc23)cc1`
(A) 34.6 µM (inactive)

(Q) Record request: GI50 value, item `C[N+](C)([O-])C12CC3CC(CC(C3)C1)C2`
(A) 28.2 µM (inactive)

(Q) Record request: GI50 value, item CCOC(=O)C1=C(C)NC(=S)NC1c1cccc(O)c1 (stereo not drawn)
(A) 59.8 µM (inactive)

(Q) Record request: GI50 value, item `N#Cc1cnn2cc[nH]c12`
(A) > 100 µM (inactive)

(Q) Record request: GI50 value, item `CCOC(=O)c1nc2ccc(C(F)(F)F)cc2nc1Nc1cc(OC)c(OC)c(OC)c1`
(A) > 100 µM (inactive)

(Q) Record request: GI50 value, item `N=C(N)N/N=C/c1cc(Cl)cc(Cl)c1O`
(A) 56.5 µM (inactive)

(Q) Record request: GI50 value, item `CCCCC(/C=N/NC(=N)N)CC.Cc1cc(O)c(C(C)C)cc1S(=O)(=O)O`
(A) 35 µM (inactive)

(Q) Record request: GI50 value, item `C1CCN(c2nc(=[N+]3CCCCC3)ss2)CC1`
(A) 73.3 µM (inactive)

(Q) Record request: GI50 value, item `S=C1NCCN1`
(A) > 100 µM (inactive)
